experiment: Therapeutic drug monitoring of everolimus in the case patient (UHPLC-MS/MS); format: in vivo; settings: human, plasma, oral, 10 mg BID, everolimus 10 mg BID, a month later, co-medication carbamazepine and phenytoin; read-out: Cminss
quantity_kind: concentration at 1 month (ng/mL)
Numbers only, in ng/mL.

Q: Supply reported concentration at 1 month belonging to this compound: CO[C@H]1C[C@@H]2CC[C@@H](C)[C@@](O)(O2)C(=O)C(=O)N2CCCC[C@H]2C(=O)O[C@H]([C@H](C)C[C@@H]2CC[C@@H](OCCO)[C@H](OC)C2)CC(=O)[C@H](C)/C=C(\C)[C@@H](O)[C@@H](OC)C(=O)[C@H](C)C[C@H](C)/C=C/C=C/C=C/1C
Ans: 8.7
